Test: Biodistribution of 177Lu-labeled αMSH analogues in mice bearing B16F10 mouse melanoma
Type: in vivo, C57BL/6J mice
Conditions: male, mouse, seminal glands, iv, total radioactivity; 24 h p.i., C57BL/6J mice, B16F10 melanoma; read-out: Biodistribution, Seminal glands

[
  {
    "compound": "CCCC[C@H](NC(=O)CN1CCC(NC(=O)[C@H](CCCCNC(=O)CN2CCN(CC(=O)O)CCN(CC(=O)O)CCN(CC(=O)O)CC2)NC(=O)[C@H](CCC(=O)O)NC(=O)CCCc2ccc(I)cc2)CC1)C(=O)N[C@H]1CC(=O)NCCCC[C@@H](C(N)=O)N(C)C(=O)[C@H](Cc2c[nH]c3ccccc23)N(C)C(=O)[C@H](CCCNC(=N)N)N(C)C(=O)[C@@H](Cc2ccccc2)NC(=O)[C@H](Cc2c[nH]cn2)N(C)C1=O [^177Lu-labeled CCZ01088, metal not drawn]",
    "tissue uptake at 24 h, %ID/g": 0.08
  }
]

* * *

Assay: Biodistribution of 177Lu-labeled αMSH analogues in mice bearing B16F10 mouse melanoma
Format: in vivo, C57BL/6J mice
Conditions: mouse, pancreas, iv, total radioactivity; 4 h p.i., C57BL/6J mice, B16F10 melanoma; read-out: Biodistribution, Pancreas
Description: The B16-F10 mouse melanoma cells were cultured and inoculated in mice as described in Example 1. For biodistribution studies, approximately 1-2 MBq of ^177Lu-labeled αMSH analogues via tail vein under anesthesia. At 1, 4, 24, and 120 h p.i., the mice were euthanized by CO2 inhalation. Organs/tissues were harvested and the radioactivity was measured as described in Example 1.

[
  {
    "compound": "CCCC[C@H](NC(=O)CN1CCC(NC(=O)[C@H](CCCCNC(=O)CN2CCN(CC(=O)O)CCN(CC(=O)O)CCN(CC(=O)O)CC2)NC(=O)[C@H](CCC(=O)O)NC(=O)CCCc2ccc(I)cc2)CC1)C(=O)N[C@H]1CC(=O)NCCCC[C@@H](C(N)=O)NC(=O)[C@H](Cc2c[nH]c3ccccc23)NC(=O)[C@H](CCCNC(=N)N)NC(=O)[C@@H](Cc2ccccc2)NC(=O)[C@H](Cc2c[nH]cn2)NC1=O [^177Lu-labeled CCZ01082, metal not drawn]",
    "tissue uptake at 4 h / %ID/g": 0.52
  },
  {
    "compound": "CCCC[C@H](NC(=O)CN1CCC(NC(=O)[C@H](CCCCNC(=O)CN2CCN(CC(=O)O)CCN(CC(=O)O)CCN(CC(=O)O)CC2)NC(=O)[C@H](CCC(=O)O)NC(=O)CCCc2ccc(I)cc2)CC1)C(=O)N[C@H]1CC(=O)NCCCC[C@@H](C(N)=O)N(C)C(=O)[C@H](Cc2c[nH]c3ccccc23)N(C)C(=O)[C@H](CCCNC(=N)N)N(C)C(=O)[C@@H](Cc2ccccc2)NC(=O)[C@H](Cc2c[nH]cn2)N(C)C1=O [^177Lu-labeled CCZ01088, metal not drawn]",
    "tissue uptake at 4 h / %ID/g": 0.31
  },
  {
    "compound": "CCCC[C@H](NC(=O)CN1CCC(NC(=O)CN2CCN(CC(=O)O)CCN(CC(=O)O)CCN(CC(=O)O)CC2)CC1)C(=O)N[C@H]1CC(=O)NCCCC[C@@H](C(N)=O)N(C)C(=O)[C@H](Cc2c[nH]c3ccccc23)N(C)C(=O)[C@H](CCCNC(=N)N)N(C)C(=O)[C@@H](Cc2ccccc2)NC(=O)[C@H](Cc2c[nH]cn2)N(C)C1=O [^177Lu-labeled CCZ01099, metal not drawn]",
    "tissue uptake at 4 h / %ID/g": 0.03
  },
  {
    "compound": "CCCC[C@H](NC(=O)CN1CCC(NC(=O)CN2CCN(CC(=O)O)CCN(CC(=O)O)CCN(CC(=O)O)CC2)CC1)C(=O)N[C@H]1CC(=O)NCCCC[C@@H](C(N)=O)N(C)C(=O)[C@H](Cc2c[nH]c3ccccc23)NC(=O)[C@H](CCCNC(=N)N)N(C)C(=O)[C@@H](Cc2ccccc2)NC(=O)[C@H](Cc2c[nH]cn2)NC1=O [^177Lu-labeled CCZ01106, metal not drawn]",
    "tissue uptake at 4 h / %ID/g": 0.03
  },
  {
    "compound": "CCCC[C@H](NC(=O)CN1CCC(NC(=O)[C@H](CCCCNC(=O)CN2CCN(CC(=O)O)CCN(CC(=O)O)CCN(CC(=O)O)CC2)NC(=O)[C@H](CCC(=O)O)NC(=O)CCCc2ccc(I)cc2)CC1)C(=O)N[C@H]1CC(=O)NCCCC[C@@H](C(N)=O)N(C)C(=O)[C@H](Cc2c[nH]c3ccccc23)NC(=O)[C@H](CCCNC(=N)N)N(C)C(=O)[C@@H](Cc2ccccc2)NC(=O)[C@H](Cc2c[nH]cn2)NC1=O [^177Lu-labeled CCZ01118, metal not drawn]",
    "tissue uptake at 4 h / %ID/g": 0.31
  }
]
